- procedure_details: qHTS for Inhibitors of the Functional Ribonucleoprotein Complex (vRNP) of Lymphocytic Choriomeningitis Arenaviruses (LCMV): Viability assay - alamar blue signal for LCMV Primary Screen (AID 1347085); note: nearly all actives have a fitted effect of over 80% in size
- measurement_context: alamar blue viability counter-screen, LCMV vRNP screen cells; series mostly up to 57.5 µM
Inconclusive results are not listed. The source made the active and inactive calls. Calls come from the whole dose curve; tested in HEK293 reporter line.
value_type: outcome

compound=Cn1c(=O)c(-c2c(Cl)cccc2Cl)cc2cnc(Nc3cccc(C(=O)O)c3)nc21 experimental_result=inactive
compound=O=C(O)/C=C/C(=O)O experimental_result=inactive
compound=C[C@H](NC(=O)C(=O)Nc1ccccc1C(C)(C)C)C(=O)N[C@@H](CC(=O)O)C(=O)COc1c(F)c(F)cc(F)c1F experimental_result=inactive
compound=CO[C@H]1/C=C\O[C@@]2(C)Oc3c(C)c(O)c4c(O)c(c5c(nc6cc(C)ccn65)c4c3C2=O)NC(=O)C(C)=CC=C[C@H](C)[C@H](O)[C@@H](C)[C@@H](O)[C@@H](C)[C@H](OC(C)=O)[C@H]1C experimental_result=inactive
compound=COc1ccc2c(c1)c(=O)cc(-c1ccccc1)n2C experimental_result=inactive
compound=CCOC(=O)c1cccc(C(=O)OCC)n1 experimental_result=inactive
compound=Cn1c2c(c(=O)c3ccccc31)CCC(C)(C)O2 experimental_result=inactive
compound=NC(=O)[C@@H](CCC(F)(F)F)N(Cc1ccc(-c2ncon2)cc1F)S(=O)(=O)c1ccc(Cl)cc1 experimental_result=inactive
compound="O=C1C2C=CC=CC2=NC(=S)N1CCN1CCC(=C(c2ccc(F)cc2)c2ccc(F)cc2)CC1 (centres undefined)" experimental_result=inactive

All figures here come from PubChem BioAssay (NCATS).
